# Tested on: Escherichia coli TOP10;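 further: peptides expressed intracellularly from a pBAD plasmid library in pooled LB shake-flask culture, induced with 0.3% L-arabinose, DNA abundance read by NGS, three biological replicates, DESeq2 with apeglm shrinkage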
# Protocol Notes: shrunken log2 fold change of peptide-encoding DNA abundance (4.5 h post-induction vs induction); higher = less antimicrobial activity (less host growth inhibition)
# Reported Conditions: time post-induction: 4.5 h; library: site-saturation at positions 5, 18, 19, 20
# reported shrunken log2 fold change; entries follow
Respond with the number and no other words.

{"columns": ["Sequence Content", "shrunken log2 fold change"],
 "data": [
  ["RRIRHRPPRLPRPRPRPWSEPRP", 0.00408],
  ["RRIRERPPRLPRPRPRPWRYPRP", -0.176],
  ["RRIRFRPPRLPRPRPRPSREPRP", 1.17],
  ["RRIRDRPPRLPRPRPRPACNPRP", 0.0741],
  ["RRIRTRPPRLPRPRPRPRKIPRP", -0.0707],
  ["RRIRNRPPRLPRPRPRPRKNPRP", 0.161],
  ["RRIRGRPPRLPRPRPRPWENPRP", 1.02],
  ["RRIRRRPPRLPRPRPRPHFMPRP", -0.141]
]}

Given the entry RRIRIRPPRLPRPRPRPKAFPRP , report its measured shrunken log2 fold change.
-0.122

Given the entry RRIRQRPPRLPRPRPRPMFSPRP , report its measured shrunken log2 fold change.
0.0442
